- Test system: IGROV1 ovarian
- PROTOCOL DESCRIPTION: NCI tumour cell line growth inhibition, 48 h
Record form. Attribute: GI50. Fill in for each entry.

Example entries begin here.
[
  {
    "COMPOUND": "COc1ccc2c(c1)OC(N(C(C)=O)C(C)=O)=C(C#N)C2c1ccc(F)cc1 (stereo not given)",
    "GI50": "2820 nM"
  },
  {
    "COMPOUND": "Cn1ccnc1C(=O)/C=C/c1ccc(CC(=O)Nc2ccccc2)cc1",
    "GI50": "2110 nM"
  },
  {
    "COMPOUND": "COc1ccc(-c2cncn2-c2ccc(OC)cc2)cc1",
    "GI50": "18700 nM"
  },
  {
    "COMPOUND": "CC(CNC(Cc1ccccc1)c1ccccc1)NC(Cc1ccccc1)c1ccccc1 (stereo not given)",
    "GI50": "2760 nM"
  }
]

Query compound follows.
Look up GI50 of c1cnc2[nH]cc(-c3csc(-c4cn(CCCCN5CCOCC5)c5ccccc45)n3)c2c1 and report it. 1430 nM
